# Target or system: T1, Monomeric 8-histidine tagged human EGFRvIII extracellular domain (human, UniProt P00533 298-645)
# T1 construct: Analyte in all SPR assays; not shown: 8-histidine tag
# Test: SPR, scFv-Fc captured by anti-human Fc, 37 C
Parameter measured: Kd

Asked: Please give the measured Kd for this binder: 14C11.HL scFv-Fc protein (Fc fusion, HL: heavy-chain variable domain at the N-terminus; not shown: human IgG1 Fc moiety) QVTLKESGPVLVKPTETLTLTCTVSGFSLNNARMGVSWIRQPPGKALEWFAHIFSTDEKSFRTSLRSRLTLSKDTSKSQVVLTMTNMDPVDTATYYCARDSSNYEGYFDYWGQGILVTVSSGGGGSGGGGSGGGGSGGGGSEIVMTQSPATLSVSPGERATLSCRASQSVSNNLAWYQQKPGQAPRLLIYGASTRATGVPARFSGSDSGTEFSLTISSLQSEDFAVYFCQQYKDWPFTFGPGTKVEIK
Given back: 104 nM

Asked: Please give the measured Kd for this binder: 30D8.HL scFv-Fc protein (Fc fusion, HL: heavy-chain variable domain at the N-terminus; not shown: human IgG1 Fc moiety) EVQLVESGGGLVKPGGSLRLSCEASGFTFSDAWMSWVRQAPGKGLEWVGRIKSKTDGGTTDYVVPLNGRFIISRDDSRNTLYLQLNNLKTEDTAVYYCTTVPGSYGYWGQGTLVTVSSGGGGSGGGGSGGGGSGGGGSDIVMTQSPLSLPVTPGEPASISCRSSQSLLHNKRNNYLDWFLQKPGQSPQLLIYLASNRASGVPDRFSGGGSGTDFTLKISRVEAEDVGVYYCMQAQQTPITFGQGTRLEIK
Given back: 225 nM

Reference source: patent US20190144550A1
